B1: TPR t1 (parent)
chain: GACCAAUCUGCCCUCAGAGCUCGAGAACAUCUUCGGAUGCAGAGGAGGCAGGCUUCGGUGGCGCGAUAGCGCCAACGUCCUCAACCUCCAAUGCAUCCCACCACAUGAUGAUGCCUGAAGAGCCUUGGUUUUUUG

variants of: B1; test: polymerase ribozyme fitness, log enrichment relative to wild type (log ratio); higher = more active; in vitro selection for triplet polymerase activity

VARIANT IDENTIFIER: C11U A41G U78G C97U
polymerase ribozyme fitness (log ratio): -1.63
--
VARIANT IDENTIFIER: A16G C94U
polymerase ribozyme fitness (log ratio): -1.93
--
VARIANT IDENTIFIER: C31G C99G
polymerase ribozyme fitness (log ratio): -6.63
--
VARIANT IDENTIFIER: A27U C73A
polymerase ribozyme fitness (log ratio): -3.09
--
VARIANT IDENTIFIER: G52A U87C C99U
polymerase ribozyme fitness (log ratio): -3.97
--
VARIANT IDENTIFIER: U130A G135U
polymerase ribozyme fitness (log ratio): -0.655
--
VARIANT IDENTIFIER: G69U C98U C115A U130A
polymerase ribozyme fitness (log ratio): -1.03
--
VARIANT IDENTIFIER: G52U C76A A105U
polymerase ribozyme fitness (log ratio): -3.02
--
VARIANT IDENTIFIER: G52U U59G C88A C101U
polymerase ribozyme fitness (log ratio): -1.76
--
VARIANT IDENTIFIER: G52A G117C
polymerase ribozyme fitness (log ratio): -2.77
--
VARIANT IDENTIFIER: C64U U112G C124G G135A
polymerase ribozyme fitness (log ratio): 1.56
--
VARIANT IDENTIFIER: G17A G36U U112G
polymerase ribozyme fitness (log ratio): -4.13
--
VARIANT IDENTIFIER: C8U C13U A68G U129G
polymerase ribozyme fitness (log ratio): -3.57
--
VARIANT IDENTIFIER: U59A C70U U87A
polymerase ribozyme fitness (log ratio): -1.83
--
VARIANT IDENTIFIER: C8A C89A G122U
polymerase ribozyme fitness (log ratio): -0.485
--
VARIANT IDENTIFIER: C28U C72G G110C
polymerase ribozyme fitness (log ratio): -1.52
--
VARIANT IDENTIFIER: C13G G71C U125A G128C
polymerase ribozyme fitness (log ratio): -3.83
--
VARIANT IDENTIFIER: C8U A26U C49G C79U G93A
polymerase ribozyme fitness (log ratio): -4.36
--
VARIANT IDENTIFIER: G19A C49G G60U C85U A111C
polymerase ribozyme fitness (log ratio): -2.03
--
VARIANT IDENTIFIER: C3A G23C C40A A84C G110C
polymerase ribozyme fitness (log ratio): -5.53
--
VARIANT IDENTIFIER: G47U G48A
polymerase ribozyme fitness (log ratio): 0.823
--
VARIANT IDENTIFIER: C4G G69A
polymerase ribozyme fitness (log ratio): -2.97
